- Target Of Assay: UniProt:O43614
- Sequence (O43614 whole entry): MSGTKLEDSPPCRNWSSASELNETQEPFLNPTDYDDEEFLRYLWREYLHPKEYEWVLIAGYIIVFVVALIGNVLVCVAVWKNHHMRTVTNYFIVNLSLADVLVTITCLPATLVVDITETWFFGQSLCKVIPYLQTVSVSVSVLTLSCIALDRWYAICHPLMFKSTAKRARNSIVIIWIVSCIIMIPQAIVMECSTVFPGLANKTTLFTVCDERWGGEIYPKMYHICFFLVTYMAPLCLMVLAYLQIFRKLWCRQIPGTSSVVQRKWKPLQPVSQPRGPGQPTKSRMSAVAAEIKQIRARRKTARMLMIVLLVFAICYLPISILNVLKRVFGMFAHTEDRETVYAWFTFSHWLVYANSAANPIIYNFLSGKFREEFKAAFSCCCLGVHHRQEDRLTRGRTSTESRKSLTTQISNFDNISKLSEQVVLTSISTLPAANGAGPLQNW
- Assay Explanation: Antagonist activity at human OX2R expressed in CHOK1 cells assessed as inhibition of orexin A-induced intracellular Ca2+ release preincubated for 15 mins followed by orexin A addition by Fura 2-AM dye based fluorescence assay
The compounds listed here are annotated with their Ki.

[
  {
    "Smiles Input": "COc1ccc2c3c1O[C@H]1[C@@H](N(C)C(=O)/C=C/c4ccoc4)CC[C@H]4[C@@H](C2)N(S(=O)(=O)c2ccccc2)CC[C@@]341",
    "Ki": "> 10 µM"
  },
  {
    "Smiles Input": "COc1ccc2c3c1O[C@H]1[C@H](N(C)C(=O)/C=C/c4ccoc4)CC[C@@]4(O)[C@@H](C2)N(S(=O)(=O)c2ccccc2)CC[C@]314",
    "Ki": "> 10 µM"
  },
  {
    "Smiles Input": "COc1ccc2c3c1O[C@H]1[C@@H](N(C)C(=O)/C=C/c4ccoc4)CC=C4[C@@H](C2)N(S(=O)(=O)c2ccccc2)CC[C@]431",
    "Ki": "0.123 µM"
  }
]
